The measured values listed here are drawn from patent US20240132491A1.

- Protocol summary: In vivo pharmacokinetics study in mice
- Design: species or system C57BL/6 mice
- Condition notes: male, C57BL/6, plasma, po; mouse, p.o. 30 mg/kg
AUC(0-inf) listing for selected compounds.

Smiles structure: COc1nc(-c2cccc(-c3cccc4c3CCN4c3nccc4cc(CN5CC[C@@H](O)C5)cnc34)c2Cl)ccc1CNC[C@@H]1CCC(=O)N1
AUC(0-inf) (µM·h): 18.8
--
Smiles structure: COc1nc(-c2cccc(-c3cccc4c3CCN4c3nccc4cc(CN5CC[C@@H](O)C5)cnc34)c2Cl)cnc1CNC[C@@H]1CCC(=O)N1
AUC(0-inf) (µM·h): 23

---

- Target under test: PD-1/PD-L1 (Homo sapiens (Human), UniProt Q9NZQ7)
- Sequence (Q9NZQ7 19-290): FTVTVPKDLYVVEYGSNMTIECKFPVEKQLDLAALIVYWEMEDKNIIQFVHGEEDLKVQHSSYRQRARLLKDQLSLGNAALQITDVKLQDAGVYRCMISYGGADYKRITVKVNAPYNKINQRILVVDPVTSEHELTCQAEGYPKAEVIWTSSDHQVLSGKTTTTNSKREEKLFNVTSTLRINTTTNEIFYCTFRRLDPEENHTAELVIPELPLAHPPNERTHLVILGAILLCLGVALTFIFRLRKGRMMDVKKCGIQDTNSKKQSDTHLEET
- Protocol summary: NFAT assay: TCR Activitor/PD-L1 CHO cells co-cultured with PD-1/NFAT Reporter-Jurkat cells, Bright-Glo readout
- Assay type: cell-based
- Condition notes: PD-L1 CHO / PD-1 NFAT Reporter-Jurkat co-culture, 5 hours
Each record's class is read off its IC50 using these ranges: lo: < 10 nM; mid: ≥ 10 nM and < 20 nM; hi: ≥ 20 nM

Compound: Cc1c(-c2nc3cc(CN4CC[C@@H](C(=O)O)C4)cc(C#N)c3o2)cccc1-c1cccc2c1CCN2c1nc(C(F)F)nc2cc(CN3CC[C@@H](O)C3)cnc12 [Compound 27]
Assigned label: lo
--
Compound: N#CCOc1nc(-c2cccc(-c3cccc4c3CCN4c3nc(C(F)F)nc4cc(CN5CC[C@@H](O)C5)cnc34)c2Cl)ccc1CNC[C@@H]1CCC(=O)N1 [Compound 7]
Assigned label: lo
--
Compound: COc1nc(-c2cccc(-c3cccc4c3CCN4c3nc(C(F)F)nc4cc(CN5CC[C@@H](O)C5)cnc34)c2Cl)cnc1CN1CC[C@@H](O)C1 [Compound 12]
Assigned label: mid
--
Compound: COc1nc(-c2cccc(-c3cccc4c3CCN4c3nc(C(F)F)nc4cc(CN5CC[C@@H](O)C5)cnc34)c2Cl)cnc1CNC[C@H](C(=O)O)C(C)C [Compound 13]
Assigned label: mid
--
Compound: COc1nc(-c2cccc(-c3cccc4c3CCN4c3nccc4cc(CN5CC[C@@H](O)C5)cnc34)c2Cl)cnc1CNC[C@@H]1CCC(=O)N1 [Compound 2]
Assigned label: mid
--
Compound: COc1nc(-c2cccc(-c3cccc4c3CCN4c3nc(C(F)F)nc4cc(CN5CC[C@@H](O)C5)cnc34)c2C)cnc1CN1CCC(C)(C(=O)O)C1 (some centres unmarked) [Compound 20]
Assigned label: hi
--
Compound: COc1nc(-c2cccc(-c3cccc4c3CCN4c3nc(C(F)F)nc4cc(CN5CC[C@@H](O)C5)cnc34)c2Cl)cnc1CN1CCC(C)(C(=O)O)C1 (some centres unmarked) [Compound 11]
Assigned label: hi
--
Compound: COc1nc(-c2cccc(-c3cccc4c3CCN4c3nc(C(F)F)nc4cc(CN5CC[C@@H](O)C5)cnc34)c2C)cnc1CN1CC[C@@H](C(=O)O)C1 [Compound 19]
Assigned label: hi
--
Compound: N#CCOc1nc(-c2cccc(-c3cccc4c3CCN4c3nc(C(F)F)nc4cc(CN5CC[C@@H](C(=O)O)C5)cnc34)c2Cl)ccc1CNC[C@@H]1CCC(=O)N1 [Compound 8]
Assigned label: lo
--
Compound: COc1nc(-c2cccc(-c3cccc4c3CCN4c3nccc4cc(CN5CC[C@@H](O)C5)cnc34)c2Cl)ccc1CNC[C@@H]1CCC(=O)N1 [Compound 1]
Assigned label: hi
--
Compound: Cc1c(-c2nc3cc(CN4CC[C@@](C)(C(=O)O)C4)cnc3o2)cccc1-c1cccc2c1CCN2c1nc(C(F)F)nc2cc(CN3CC[C@@H](O)C3)cnc12 [Compound 30]
Assigned label: mid
